Test system: 126254-015-R-J1-PDC complex spheroid growth, % test/control
procedure text: Anticancer human tumor 126254-015-R-J1-PDC patient-derived soft tissue sarcoma cell line growth inhibition [Asc]
conditions used: second compound 0.316 µM; first compound 0.0949 µM; stronger effect = lower value
So I've got a bunch of compounds here, and I need their viability, T/C values.
Numbers only, in %.

// below: answered compounds
{"columns": ["compound", "system name", "unit tag", "observed result"],
 "data": [
  ["CCN1C(C(=O)NC23CCC(C(=O)O)(CC2)CC3)C(c2cccc(Cl)c2F)C2(C(=O)Nc3cc(Cl)ccc32)C12CCCCC2 (stereo not drawn) + Cc1c(S(C)(=O)=O)c(-c2cc(F)cc(N3CCN(c4ccc(NS(=O)(=O)c5ccc(NC(CCN6CCC(C(=O)OCCCP(=O)(O)O)CC6)CSc6ccccc6)c(S(=O)(=O)C(F)(F)F)c5)cc4)CC3)c2)c(-c2ccc(Cl)cc2)n1C(C)C", "126254-015-R-J1-PDC complex spheroid growth, % test/control", "%", 81.9],
  ["Cc1nc(N2CCC3(CC2)COC(C)C3N)c(CO)nc1Sc1ccnc(N)c1Cl (stereo not drawn) + CNC(C)C(=O)NC1CN(S(=O)(=O)c2cccc(S(=O)(=O)N3CCC4CCC(C(=O)NC(c5ccccc5)c5ccccc5)N4C(=O)C(NC(=O)C(C)NC)C3)c2)CCC2CCC(C(=O)NC(c3ccccc3)c3ccccc3)N2C1=O", "126254-015-R-J1-PDC complex spheroid growth, % test/control", "%", 56.3]
]}

Okay, next one:
Q) Entry CCN1C(C(=O)NC23CCC(C(=O)O)(CC2)CC3)C(c2cccc(Cl)c2F)C2(C(=O)Nc3cc(Cl)ccc32)C12CCCCC2 (stereo not drawn) + CNC(C)C(=O)NC1CN(S(=O)(=O)c2cccc(S(=O)(=O)N3CCC4CCC(C(=O)NC(c5ccccc5)c5ccccc5)N4C(=O)C(NC(=O)C(C)NC)C3)c2)CCC2CCC(C(=O)NC(c3ccccc3)c3ccccc3)N2C1=O needs its viability, T/C filled in; supply it.
A) 60.7

====

Tested on: 126254-015-R-J1-PDC complex spheroid growth, % test/control
procedure text: Anticancer human tumor 126254-015-R-J1-PDC cell line growth inhibition [Asc];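 further: spheroids exposed to compound for seven days; 100% = DMSO vehicle control wells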
conditions used: second compound 3.16 µM; first compound 1 µM; stronger effect = lower value
parameter measured: viability, T/C (%)
One number for each entry, in %.

{"columns": ["compound", "system name", "viability, T/C (%)"],
 "data": [
  ["O=C(c1cc(Cc2n[nH]c(=O)c3ccccc23)ccc1F)N1CCN(C(=O)C2CC2)CC1 + Cc1c(S(C)(=O)=O)c(-c2cc(F)cc(N3CCN(c4ccc(NS(=O)(=O)c5ccc(NC(CCN6CCC(C(=O)OCCCP(=O)(O)O)CC6)CSc6ccccc6)c(S(=O)(=O)C(F)(F)F)c5)cc4)CC3)c2)c(-c2ccc(Cl)cc2)n1C(C)C", "126254-015-R-J1-PDC complex spheroid growth, % test/control", 65.5],
  ["C#Cc1c(F)ccc2cc(O)cc(-c3ncc4c(N5CC6CCC(C5)N6)nc(OCC56CCCN5CC(F)C6)nc4c3F)c12 (stereo unspecified) + Cc1c(S(C)(=O)=O)c(-c2cc(F)cc(N3CCN(c4ccc(NS(=O)(=O)c5ccc(NC(CCN6CCC(C(=O)OCCCP(=O)(O)O)CC6)CSc6ccccc6)c(S(=O)(=O)C(F)(F)F)c5)cc4)CC3)c2)c(-c2ccc(Cl)cc2)n1C(C)C", "126254-015-R-J1-PDC complex spheroid growth, % test/control", 79.5]
]}

List the reported viability, T/C of each compound below.
1. O=C(c1ccc(F)c(F)c1Nc1ccc(I)cc1F)N1CC(O)([C@@H]2CCCCN2)C1 + Cc1c(S(C)(=O)=O)c(-c2cc(F)cc(N3CCN(c4ccc(NS(=O)(=O)c5ccc(NC(CCN6CCC(C(=O)OCCCP(=O)(O)O)CC6)CSc6ccccc6)c(S(=O)(=O)C(F)(F)F)c5)cc4)CC3)c2)c(-c2ccc(Cl)cc2)n1C(C)C
2. CNC(C)C(=O)NC1CN(S(=O)(=O)c2cccc(S(=O)(=O)N3CCC4CCC(C(=O)NC(c5ccccc5)c5ccccc5)N4C(=O)C(NC(=O)C(C)NC)C3)c2)CCC2CCC(C(=O)NC(c3ccccc3)c3ccccc3)N2C1=O (stereo unspecified) + Cc1c(S(C)(=O)=O)c(-c2cc(F)cc(N3CCN(c4ccc(NS(=O)(=O)c5ccc(NC(CCN6CCC(C(=O)OCCCP(=O)(O)O)CC6)CSc6ccccc6)c(S(=O)(=O)C(F)(F)F)c5)cc4)CC3)c2)c(-c2ccc(Cl)cc2)n1C(C)C
3. C=CC(=O)N1CCN(c2nc(=O)n(-c3c(C)ccnc3C(C)C)c3nc(-c4c(O)cccc4F)c(F)cc23)C(C)C1 (stereo unspecified) + Cc1c(S(C)(=O)=O)c(-c2cc(F)cc(N3CCN(c4ccc(NS(=O)(=O)c5ccc(NC(CCN6CCC(C(=O)OCCCP(=O)(O)O)CC6)CSc6ccccc6)c(S(=O)(=O)C(F)(F)F)c5)cc4)CC3)c2)c(-c2ccc(Cl)cc2)n1C(C)C
4. C=C(F)C(=O)N1CCN(c2nc(OCC3CCCN3C)nc3c2CCN(c2cccc4cccc(Cl)c24)C3)CC1CC#N (stereo unspecified) + Cc1c(S(C)(=O)=O)c(-c2cc(F)cc(N3CCN(c4ccc(NS(=O)(=O)c5ccc(NC(CCN6CCC(C(=O)OCCCP(=O)(O)O)CC6)CSc6ccccc6)c(S(=O)(=O)C(F)(F)F)c5)cc4)CC3)c2)c(-c2ccc(Cl)cc2)n1C(C)C

A)
27.6
32.6
93.2
51.7

====

Test system: 126254-015-R-J1-PDC complex spheroid growth, % test/control
procedure text: Anticancer human tumor 126254-015-R-J1-PDC cell line growth inhibition [Asc];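 further: spheroids exposed to compound for seven days; 100% = DMSO vehicle control wells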
conditions used: second compound 10 µM; first compound 0.01 µM; stronger effect = lower value
So I've got a bunch of compounds here, and I need their viability, T/C values.
One number for each entry, in %.

// below: answered compounds
{"columns": ["compound", "viability, T/C / %"],
 "data": [
  ["Cn1ncnc1[C@H]1c2n[nH]c(=O)c3cc(F)cc(c23)N[C@@H]1c1ccc(F)cc1 + Cc1c(S(C)(=O)=O)c(-c2cc(F)cc(N3CCN(c4ccc(NS(=O)(=O)c5ccc(NC(CCN6CCC(C(=O)OCCCP(=O)(O)O)CC6)CSc6ccccc6)c(S(=O)(=O)C(F)(F)F)c5)cc4)CC3)c2)c(-c2ccc(Cl)cc2)n1C(C)C", 68.7],
  ["O=C(c1ccc(F)c(F)c1Nc1ccc(I)cc1F)N1CC(O)([C@@H]2CCCCN2)C1 + Cc1c(S(C)(=O)=O)c(-c2cc(F)cc(N3CCN(c4ccc(NS(=O)(=O)c5ccc(NC(CCN6CCC(C(=O)OCCCP(=O)(O)O)CC6)CSc6ccccc6)c(S(=O)(=O)C(F)(F)F)c5)cc4)CC3)c2)c(-c2ccc(Cl)cc2)n1C(C)C", 98],
  ["NC1CCC(NC2CC2c2ccccc2)CC1 (stereo unspecified) + Cc1c(S(C)(=O)=O)c(-c2cc(F)cc(N3CCN(c4ccc(NS(=O)(=O)c5ccc(NC(CCN6CCC(C(=O)OCCCP(=O)(O)O)CC6)CSc6ccccc6)c(S(=O)(=O)C(F)(F)F)c5)cc4)CC3)c2)c(-c2ccc(Cl)cc2)n1C(C)C", 71.3]
]}

List the reported viability, T/C of each compound below.
1. CCN1CCN(Cc2ccc(Nc3ncc(F)c(-c4cc(F)c5nc(C)n(C(C)C)c5c4)n3)nc2)CC1 + Cc1c(S(C)(=O)=O)c(-c2cc(F)cc(N3CCN(c4ccc(NS(=O)(=O)c5ccc(NC(CCN6CCC(C(=O)OCCCP(=O)(O)O)CC6)CSc6ccccc6)c(S(=O)(=O)C(F)(F)F)c5)cc4)CC3)c2)c(-c2ccc(Cl)cc2)n1C(C)C
2. CNC(C)C(=O)NC1CN(S(=O)(=O)c2cccc(S(=O)(=O)N3CCC4CCC(C(=O)NC(c5ccccc5)c5ccccc5)N4C(=O)C(NC(=O)C(C)NC)C3)c2)CCC2CCC(C(=O)NC(c3ccccc3)c3ccccc3)N2C1=O (stereo unspecified) + Cc1c(S(C)(=O)=O)c(-c2cc(F)cc(N3CCN(c4ccc(NS(=O)(=O)c5ccc(NC(CCN6CCC(C(=O)OCCCP(=O)(O)O)CC6)CSc6ccccc6)c(S(=O)(=O)C(F)(F)F)c5)cc4)CC3)c2)c(-c2ccc(Cl)cc2)n1C(C)C
3. COc1c(OCCCN2CCOCC2)ccc2c3n(c(=NC(=O)c4cnc(N)nc4)nc12)CCN3 + Cc1c(S(C)(=O)=O)c(-c2cc(F)cc(N3CCN(c4ccc(NS(=O)(=O)c5ccc(NC(CCN6CCC(C(=O)OCCCP(=O)(O)O)CC6)CSc6ccccc6)c(S(=O)(=O)C(F)(F)F)c5)cc4)CC3)c2)c(-c2ccc(Cl)cc2)n1C(C)C

A)
1: 90.4; 2: 78.6; 3: 87.7

Reference for the values: PubChem BioAssay AID1963429
